tested on: ducksalad (Heteranthera limosa); test: Test B flooded paddy test; type: in vivo; conditions: Heteranthera limosa, 360 h, Flood, 250 g ai/ha; visually evaluated after 13 to 15 d; read-out: Plant response rating, Ducksalad (0 to 100 scale where 0 is no effect and 100 is complete control)

compound	pest or weed control at 250 g/ha, %
O=C1NCC(c2ccccc2)C1C(=O)Nc1ccccc1 (stereo not drawn)	0
CN1C[C@H](c2cccc(C(F)(F)F)c2)[C@@H](C(=O)Nc2cccnc2F)C1=O	100
CO[C@]1(C(=O)Nc2cccc(F)c2F)C(=O)N(C)C[C@@H]1c1ccc(C(F)(F)F)cc1 (racemic)	90
COc1c([C@H]2CN(C)C(=O)[C@@H]2C(=O)Nc2ccccc2F)cccc1C(F)(F)F	100
CN1C[C@H](c2ccc(C(F)(F)F)cc2)[C@@H](C(=O)Nc2cccc(F)n2)C1=O	100
CN1CC[C@H](c2cccc(C(F)(F)F)c2)[C@@H](C(=O)Nc2ccccc2F)C1=O	20

* * *

test system: Kochia (Kochia scoparia); assay: Test A postemergence; format: in vivo; conditions: Bassia scoparia, post-emergence, 240 h, 125 g ai/ha, postemergence; visual injury after approximately 10 d; 0 to 100 scale (0 no effect, 100 complete control); read-out: Plant response rating, Kochia
Text: […]
Each entry below lists one item and its recorded pest or weed control at 125 g/ha value.
quantity_kind: pest or weed control at 125 g/ha (%)

molecule	target_or_system	quantity_kind	unit_string	readout_value
CN1C[C@H](c2ccc(F)c(OC(F)(F)C(F)F)c2)[C@@H](C(=O)Nc2ccccc2F)C1=O	Kochia (Kochia scoparia)	pest or weed control at 125 g/ha	%	40
Cc1ccc(NC(=O)[C@H]2C(=O)N(C)C[C@@H]2c2cc(F)cc(F)c2)c(F)c1	Kochia (Kochia scoparia)	pest or weed control at 125 g/ha	%	0
Cc1ccc([C@H]2CNC(=S)[C@@H]2C(=O)Nc2cccc(F)c2F)cc1C	Kochia (Kochia scoparia)	pest or weed control at 125 g/ha	%	0
CCc1cc(CC)cc([C@H]2CN(C)C(=O)[C@@H]2C(=O)Nc2ccccc2F)c1	Kochia (Kochia scoparia)	pest or weed control at 125 g/ha	%	30
CN1C[C@H](c2cc(F)cc(F)c2)[C@@H](C(=O)NC2CCc3ccccc32)C1=O (stereo partly drawn)	Kochia (Kochia scoparia)	pest or weed control at 125 g/ha	%	0
CN1C[C@H](c2cccc(C(F)(F)F)c2)[C@@H](C(=O)Nc2ccccc2C2CC2)C1=O	Kochia (Kochia scoparia)	pest or weed control at 125 g/ha	%	0
CN1C[C@H](c2ccc(C#N)cc2)[C@@H](C(=O)Nc2cccc(F)c2F)C1=O (racemic)	Kochia (Kochia scoparia)	pest or weed control at 125 g/ha	%	40
CCc1cc(CC)cc([C@H]2CN(C)C(=O)[C@@H]2C(=O)Nc2cccc(F)c2F)c1	Kochia (Kochia scoparia)	pest or weed control at 125 g/ha	%	20
Cc1ccc([C@H]2CN(C)C(=O)[C@@H]2C(=O)Nc2cccc(F)c2F)c(F)c1	Kochia (Kochia scoparia)	pest or weed control at 125 g/ha	%	70

* * *

Each entry below lists one item and its recorded Plant response rating, Blackgrass value.
system: blackgrass (Alopecurus myosuroides); assay: Test C preemergence; assay type: in vivo; conditions: 62 g ai/ha, scale 0 to 100, 0 no effect, 100 complete control
quantity_kind: Plant response rating, Blackgrass

molecule	target_or_system	quantity_kind	readout_value
CN1CC(c2cc(F)cc(F)c2)C(C(=O)Nc2ccc(F)c(F)c2F)C1=O (centres unmarked) [Compound 646]	blackgrass (Alopecurus myosuroides)	Plant response rating, Blackgrass	80
CN1CC(c2cccc(OC(F)F)c2)C(C(=O)Nc2cccc(F)c2F)C1=O (centres unmarked) [Compound 616]	blackgrass (Alopecurus myosuroides)	Plant response rating, Blackgrass	45
CN1CC(c2ccc(F)c(F)c2)C(C(=O)Nc2ccccc2C(F)(F)F)C1=O (centres unmarked) [Compound 641]	blackgrass (Alopecurus myosuroides)	Plant response rating, Blackgrass	45
O=C1NCC(c2cccc(OC(F)(F)C(F)F)c2)C1C(=O)Nc1cccc(F)c1F (racemic) [Compound 697]	blackgrass (Alopecurus myosuroides)	Plant response rating, Blackgrass	75
O=C1NCC(c2ccc3c(c2)OC(F)(F)O3)C1C(=O)Nc1cccc(F)c1F (centres unmarked) [Compound 635]	blackgrass (Alopecurus myosuroides)	Plant response rating, Blackgrass	60
